Taken from patent US6693123B2.

The following compounds are shown together with reported inhibition at 0.1 µM values.
# Tested On: Rat brain protein farnesyltransferase (Rattus norvegicus, UniProt Q02293+Q04631)
# Construct: The enzyme is purified according to Reiss, Y., et al., Cell, 62: 81-88 (1990), utilizing steps one through three; from tissue; host or cells: rat brain
# Test Name: In vitro inhibition of protein farnesyltransferase, Amersham scintillation proximity assay with biotin-K Ras B fragment
# Type: biochemical
# Stated Conditions: Inhibition of farnesyltransferase; compound at 1 × 10^−7 M (Table 3); read-out: % inhibition at 1 × 10^−7 M
Structures can show the parent of a compound that is named as a salt.
Lab book: enter the figure in %, no units written.

INSERT INTO assay_data (compound, test_result) VALUES
  ('CSCC[C@@H](C(=O)O)N(C)C(=O)c1ccc(CN(Cc2ccccc2)c2cccnc2)cc1-c1ccccc1C', 97),
  ('CSCC[C@H](NC(=O)c1ccc(/C=C/c2cnccc2C(O)C2CCCCC2)cc1-c1ccccc1C)C(=O)O (stereo partly drawn) [Example 486, Lithium Salt]', 97),
  ('CSCC[C@H](NC(=O)c1cc(CC2CCCCC2)c(COc2cccnc2)cc1-c1ccccc1C)C(=O)O', 82),
  ('CSCC[C@H](NC(=O)c1ccc(CCc2cccnc2)cc1-c1ccccc1C)/C(=N/O)NO', 71);

// lookup inhibition at 0.1 µM for `CCCCCc1cc(C(=O)N[C@@H](CCSC)C(=O)O)c(-c2ccccc2C)cc1COc1cccnc1`
91

// lookup inhibition at 0.1 µM for CSCC[C@H](NC(=O)c1ccc(/C=C/c2cnccc2C(=O)c2ccccc2)cc1-c1ccccc1C)C(=O)O [Example 483, Lithium Salt]
95

// lookup inhibition at 0.1 µM for `CSCC[C@H](NC(=O)c1ccc(C#Cc2cccnc2)cc1-c1ccccc1C)C(=O)O`
95

// lookup inhibition at 0.1 µM for CSCCC(OC(=O)c1ccc(/C=C/c2cccnc2)cc1-c1ccccc1C)C(=O)O (stereo not drawn)
81

// lookup inhibition at 0.1 µM for CSCC[C@H](NC(=O)c1ccc(/C=C/c2cnccc2C2(O)CCCCC2)cc1-c1ccccc1C)C(=O)O [Example 482, Lithium Salt]
96
